Data origin, for the record: patent US5225528A

molecular target: uterine OT receptors (Rattus norvegicus); construct: from tissue; host or cells: uterus of DES-treated rats, crude membranes; assay: [^3 H]OT binding to uterine OT receptors, crude membrane preparation of uteri from DES-treated rats; settings: rat uterus membranes, 1 nM [^3 H]OT; read-out: Receptor Binding Results IC50 (nM) [^3 H]OT
Sequence (P70536 whole entry): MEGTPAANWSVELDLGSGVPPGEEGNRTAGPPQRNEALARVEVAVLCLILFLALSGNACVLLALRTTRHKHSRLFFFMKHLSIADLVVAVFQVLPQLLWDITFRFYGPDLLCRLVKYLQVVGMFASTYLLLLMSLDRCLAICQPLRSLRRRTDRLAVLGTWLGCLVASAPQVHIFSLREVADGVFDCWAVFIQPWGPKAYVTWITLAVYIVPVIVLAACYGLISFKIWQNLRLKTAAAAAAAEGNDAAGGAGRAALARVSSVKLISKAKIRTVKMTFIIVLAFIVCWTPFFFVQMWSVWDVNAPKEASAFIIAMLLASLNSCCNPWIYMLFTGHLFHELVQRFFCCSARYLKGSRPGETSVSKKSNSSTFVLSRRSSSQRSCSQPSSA
Numbered stars: 1 amine (or outer) side, 2 acyl side, 3 side chain; on linkers, the order of the positions; unused ones are H or OH. Square brackets hold non-standard residues; d marks the D form. Peptide text beside a SMILES is read from it. * marks the point of attachment. X4 = O=C([C@@H](Cc1cn(COCc2ccccc2)cn1)N[*:1])[*:2]; NH(2-(imidazol-4-yl)ethyl) = c1ncc(CCN*)[nH]1; Hyp = O=C(O)[C@@H]1C[C@@H](O)CN1; Pip(4-aza) = O=C(O)[C@@H]1CNCCN1; dNMeF = CN[C@H](Cc1ccccc1)C(=O)O; dPip(4-aza) = O=C(O)[C@H]1CNCCN1; Pip = O=C(O)[C@@H]1CCCCN1; dPip = O=C(O)[C@H]1CCCCN1; Orn = NCCC[C@H](N)C(=O)O; Cbz = O=C(OCc1ccccc1)*
Decision: IC50 beneath 400 nM gives true; IC50 meeting or exceeding 400 nM gives false.

Illustrative cases are given below, each with its answer.
CC[C@H](C)[C@@H]1NC(=O)[C@@H](Cc2c[nH]c3ccccc23)NC(=O)[C@@H]2CCCN2C(=O)[C@@H](Cc2ccccc2)N(C)C(=O)[C@H](CCCNC(=O)OCc2ccccc2)NC(=O)[C@H]2CCCCN2C1=O [Example 34] (cyclo(I[dPip][Orn](Cbz)[dNMeF]P[dW])) ... true
CC[C@H](C)[C@@H]1NC(=O)[C@@H](Cc2ccccc2)NC(=O)[C@@H]2CCCN2C(=O)[C@@H](Cc2ccccc2)N(C)C(=O)[C@H](CC(=O)NCCc2c[nH]cn2)NC(=O)[C@H]2CCCCN2C1=O [Example 120] (cyclo(D(NH(2-(imidazol-4-yl)ethyl))[dNMeF]P[dF]I[dPip])) ... true
CC[C@H](C)[C@@H]1NC(=O)[C@@H](Cc2ccccc2)NC(=O)[C@@H]2CCCN2C(=O)[C@@H](Cc2ccccc2)NC(=O)[C@@H]2CNCCN2C(=O)[C@H]2CNCCN2C1=O [Example 80] (cyclo(I[dPip(4-aza)][Pip(4-aza)][dF]P[dF])) ... false
CC[C@H](C)[C@@H]1NC(=O)[C@@H](Cc2ccccc2)NC(=O)[C@@H]2CCCN2C(=O)[C@@H](Cc2ccccc2)NC(=O)[C@H](CC(N)=O)NC(=O)[C@@H](CCC(N)=O)NC1=O [Example 102] (cyclo([dF]I[dQ]N[dF]P)) ... false
CC[C@H](C)[C@@H]1NC(=O)[C@@H](Cc2ccccc2)NC(=O)[C@@H]2CCCN2C(=O)[C@@H](Cc2ccccc2)NC(=O)[C@@H]2CCCCN2C(=O)[C@H]2CCCCN2C1=O [Example 103] (cyclo(I[dPip][Pip][dF]P[dF])) ... true
CC[C@H](C)[C@@H]1NC(=O)[C@@H](Cc2c[nH]c3ccccc23)NC(=O)[C@@H]2CCCN2C(=O)[C@@H](Cc2cn(COCc3ccccc3)cn2)NC(=O)[C@@H]2CNCCN2C(=O)[C@H]2CCCCN2C1=O [Example 177] (cyclo([dW]I[dPip][Pip(4-aza)][X4]P)) ... true
CC[C@H](C)[C@@H]1NC(=O)[C@@H](Cc2ccccc2)NC(=O)[C@@H]2CCCN2C(=O)[C@@H](Cc2ccccc2)NC(=O)[C@H]2CNCCN2C(=O)[C@H]2CCCCN2C1=O [Example 78] (cyclo(I[dPip][dPip(4-aza)][dF]P[dF])) ... true

Q: Determine if CC[C@H](C)[C@@H]1NC(=O)[C@@H](Cc2ccccc2)NC(=O)[C@@H]2CCCN2C(=O)[C@@H](Cc2ccccc2)NC(=O)[C@@H]2C[C@@H](O)CN2C(=O)[C@H]2CCCN2C1=O [Example 71] (cyclo([Hyp][dF]P[dF]I[dP])) shows IC50 strictly lower than 400 nM.
Ans: false
